System: Rattus norvegicus
Assay: Antiinflammatory activity in albino Charles-Foster rat assessed as inhibition of carrageenan-induced paw oedema at 50 mg/kg, po administered 30 mins before carrageenan challenge […] after 1-3 hrs relative to control
Type: functional
Set-up: scale not given: the % may be the effect or the level left
quantity_kind: Activity (%)

[[record]]
compound = "COc1ccc2nc3ccccc3c(NC(=S)NCc3ccco3)c2c1"
assay_result = 30.98

[[record]]
compound = "Cc1cccc2c(NC(=S)NCCc3c[nH]c4ccccc34)c3ccccc3nc12"
assay_result = 35.77

[[record]]
compound = "Cc1cccc2c(NC(=S)NCC3CCCO3)c3ccccc3nc12 (racemic)"
assay_result = 25.35

[[record]]
compound = "COc1ccc2nc3ccccc3c(NC(=S)NCC3CCCO3)c2c1 (racemic)"
assay_result = 29.57

[[record]]
compound = "COc1ccc2nc3ccccc3c(NCc3ccco3)c2c1"
assay_result = 22.96

[[record]]
compound = "Cc1cccc2c(NCC3CCCO3)c3ccccc3nc12 (racemic)"
assay_result = 34.02

[[record]]
compound = "COc1ccc2nc3ccccc3c(NCCc3c[nH]c4ccccc34)c2c1"
assay_result = 31.33

